These data points were gathered from ChEMBL document CHEMBL4689842.

Population Tubulin-Different-Phenotype (%) values by entry
System: U2OS
Assay Name: Multiplex assay against U2OS
Format: toxicity, cell-based
Experimental Conditions: human, 24 h, 10 µM, compound concentration 10 uM, replicate 2
I only need the number, in %, no unit after it.

Molecule	Endpoint Result
CC[C@@]1(O)C(=O)OCc2c1cc1n(c2=O)Cc2cc3ccccc3nc2-1	42
Cc1c(P(=S)(c2ccccc2)c2ccccc2)n2ccccc2[n+]1C/C=C/c1ccccc1.[Br-]	81
CC[C@H](Nc1ncnc2[nH]cnc12)c1nc2cccc(F)c2c(=O)n1-c1ccccc1	21

Fill blank: measured Population Tubulin-Different-Phenotype (%) of the molecule CN1C(=O)[C@@H](NC(=O)c2cc3ccccc3[nH]2)N=C(c2ccccc2)c2ccccc21 [DEVAZEPIDE] is ____.
51

How about `N#Cc1cccc(C(=O)Nc2cc(-c3ccccc3)nn2-c2ccccc2)c1` ?
95

How about `CC(/C=C1\SC(=S)N(CCCC(=O)Nc2ccc(C(=O)O)c(O)c2)C1=O)=C\c1ccccc1` ?
14
